System: H9
ASSAY DETAILS: Leukemia cell growth inhibition, MTT, 72 h
Type: cell-based, human
REPORTED CONDITIONS: Homo sapiens, H9; 72 h, MTT
MEASURE: IC50 (µg/mL)

[
  {
    "COMPOUND": "C=C1C(=O)[C@]23[C@H](OC(=O)c4ccccc4)[C@H]1CC[C@H]2[C@@]12CO[C@@]3(O)[C@@H](O)[C@@H]1C(C)(C)CCC2=O",
    "UNITS TEXT": "µg/mL",
    "RECORDED VALUE": 0.45
  },
  {
    "COMPOUND": "C=C1C(=O)[C@]23[C@H](OC(=O)c4ccc(C)cc4)[C@H]1CC[C@H]2[C@@]12CO[C@@]3(O)[C@@H](O)[C@@H]1C(C)(C)CCC2OC(C)=O (some centres unmarked)",
    "UNITS TEXT": "µg/mL",
    "RECORDED VALUE": 0.06
  },
  {
    "COMPOUND": "C=C1C(=O)[C@]23[C@H](OC(=O)c4ccc(Cl)cc4)[C@H]1CC[C@H]2[C@@]12CO[C@@]3(O)[C@@H](O)[C@@H]1C(C)(C)CC[C@@H]2OC(C)=O",
    "UNITS TEXT": "µg/mL",
    "RECORDED VALUE": 0.06
  },
  {
    "COMPOUND": "C=C1C(=O)[C@]23[C@H](OC(=O)c4ccncc4)[C@H]1CC[C@H]2[C@@]12CO[C@@]3(O)[C@@H](O)[C@@H]1C(C)(C)CCC2=O",
    "UNITS TEXT": "µg/mL",
    "RECORDED VALUE": 0.75
  },
  {
    "COMPOUND": "C=C1C(=O)[C@]23[C@H](OC(=O)C4CCN(S(=O)(=O)c5cccc([N+](=O)[O-])c5)CC4)[C@H]1CC[C@H]2[C@@]12CO[C@@]3(O)[C@@H](O)[C@@H]1C(C)(C)CCC2=O",
    "UNITS TEXT": "µg/mL",
    "RECORDED VALUE": 1.64
  },
  {
    "COMPOUND": "C=C1C(=O)[C@]23[C@H](OC(=O)C4CC4)[C@H]1CC[C@H]2[C@@]12CO[C@@]3(O)[C@@H](O)[C@@H]1C(C)(C)CCC2=O",
    "UNITS TEXT": "µg/mL",
    "RECORDED VALUE": 0.53
  },
  {
    "COMPOUND": "C=C1C(=O)[C@]23[C@H](OC(=O)C4CCN(S(=O)(=O)c5ccccc5[N+](=O)[O-])CC4)[C@H]1CC[C@H]2[C@@]12CO[C@@]3(O)[C@@H](O)[C@@H]1C(C)(C)CCC2=O",
    "UNITS TEXT": "µg/mL",
    "RECORDED VALUE": 0.78
  },
  {
    "COMPOUND": "C=C1C(=O)[C@]23[C@H](OC(=O)c4ccccc4Br)[C@H]1CC[C@H]2[C@@]12CO[C@@]3(O)[C@@H](O)[C@@H]1C(C)(C)CCC2=O",
    "UNITS TEXT": "µg/mL",
    "RECORDED VALUE": 0.89
  },
  {
    "COMPOUND": "C=C1C(=O)[C@]23[C@H](O)[C@H]1CC[C@H]2[C@@]12CO[C@]3(O)[C@@H](O)[C@@H]1C(C)(C)CC[C@@H]2O",
    "UNITS TEXT": "µg/mL",
    "RECORDED VALUE": 1.36
  },
  {
    "COMPOUND": "C=C1C(=O)[C@]23[C@H](OC(=O)c4ccc(C)cc4)[C@H]1CC[C@H]2[C@@]12CO[C@@]3(O)[C@@H](O)[C@@H]1C(C)(C)CCC2=O",
    "UNITS TEXT": "µg/mL",
    "RECORDED VALUE": 0.34
  },
  {
    "COMPOUND": "C=C1C(=O)[C@]23[C@H](OC(=O)c4ccc(Cl)cc4)[C@H]1CC[C@H]2[C@@]12CO[C@@]3(O)[C@@H](O)[C@@H]1C(C)(C)CCC2=O",
    "UNITS TEXT": "µg/mL",
    "RECORDED VALUE": 0.38
  },
  {
    "COMPOUND": "C=C1C(=O)[C@]23[C@H](OC(=O)c4cccc(C)c4)[C@H]1CC[C@H]2[C@@]12CO[C@@]3(O)[C@@H](O)[C@@H]1C(C)(C)CCC2=O",
    "UNITS TEXT": "µg/mL",
    "RECORDED VALUE": 0.76
  },
  {
    "COMPOUND": "C=C1C(=O)[C@]23[C@H](OC(=O)c4ccc(OC)cc4)[C@H]1CC[C@H]2[C@@]12CO[C@@]3(O)[C@@H](O)[C@@H]1C(C)(C)CCC2OC(C)=O (some centres unmarked)",
    "UNITS TEXT": "µg/mL",
    "RECORDED VALUE": 0.14
  },
  {
    "COMPOUND": "C=C1C(=O)[C@]23[C@H](OC(=O)/C=C/c4ccccc4)[C@H]1CC[C@H]2[C@@]12CO[C@@]3(O)[C@@H](O)[C@@H]1C(C)(C)CCC2=O",
    "UNITS TEXT": "µg/mL",
    "RECORDED VALUE": 2.69
  },
  {
    "COMPOUND": "C=C1C(=O)[C@]23[C@H](OC(=O)c4ccccc4Cl)[C@H]1CC[C@H]2[C@@]12CO[C@@]3(O)[C@@H](O)[C@@H]1C(C)(C)CCC2=O",
    "UNITS TEXT": "µg/mL",
    "RECORDED VALUE": 0.83
  },
  {
    "COMPOUND": "C=C1C(=O)[C@]23[C@H](OC(=O)C4CCC(NC(=O)c5ccccn5)CC4)[C@H]1CC[C@H]2[C@@]12CO[C@@]3(O)[C@@H](O)[C@@H]1C(C)(C)CCC2=O (some centres unmarked)",
    "UNITS TEXT": "µg/mL",
    "RECORDED VALUE": 0.56
  },
  {
    "COMPOUND": "C=C1C(=O)[C@]23[C@H](OC(=O)c4cccs4)[C@H]1CC[C@H]2[C@@]12CO[C@@]3(O)[C@@H](O)[C@@H]1C(C)(C)CCC2=O",
    "UNITS TEXT": "µg/mL",
    "RECORDED VALUE": 0.41
  },
  {
    "COMPOUND": "C=C1C(=O)[C@]23[C@H](OC(=O)c4ccc(OC)c(OC)c4)[C@H]1CC[C@H]2[C@@]12CO[C@@]3(O)[C@@H](O)[C@@H]1C(C)(C)CCC2=O",
    "UNITS TEXT": "µg/mL",
    "RECORDED VALUE": 0.45
  },
  {
    "COMPOUND": "C=C1C(=O)[C@]23[C@H](OC(=O)/C=C/c4ccccc4)[C@H]1CC[C@H]2[C@@]12CO[C@@]3(O)[C@@H](O)[C@@H]1C(C)(C)CC[C@@H]2OC(C)=O",
    "UNITS TEXT": "µg/mL",
    "RECORDED VALUE": 0.19
  },
  {
    "COMPOUND": "C=C1C(=O)[C@]23[C@H](OC(=O)C4CCN(S(=O)(=O)CC)CC4)[C@H]1CC[C@H]2[C@@]12CO[C@@]3(O)[C@@H](O)[C@@H]1C(C)(C)CCC2=O",
    "UNITS TEXT": "µg/mL",
    "RECORDED VALUE": 1.42
  },
  {
    "COMPOUND": "C=C1C(=O)[C@]23[C@H](OC(=O)C4CCN(S(=O)(=O)c5ccccc5)CC4)[C@H]1CC[C@H]2[C@@]12CO[C@@]3(O)[C@@H](O)[C@@H]1C(C)(C)CCC2=O",
    "UNITS TEXT": "µg/mL",
    "RECORDED VALUE": 6.71
  },
  {
    "COMPOUND": "C=C1C(=O)[C@]23[C@H](OC(=O)c4ccc(OC)cc4)[C@H]1CC[C@H]2[C@@]12CO[C@@]3(O)[C@@H](O)[C@@H]1C(C)(C)CCC2=O",
    "UNITS TEXT": "µg/mL",
    "RECORDED VALUE": 0.38
  },
  {
    "COMPOUND": "C=C1C(=O)[C@]23[C@H](OC(=O)c4cccnc4)[C@H]1CC[C@H]2[C@@]12CO[C@@]3(O)[C@@H](O)[C@@H]1C(C)(C)CCC2=O",
    "UNITS TEXT": "µg/mL",
    "RECORDED VALUE": 0.56
  }
]

The measurements presented in this section are drawn from patent US9902736B2.
